cond: 308.15 K; 100 kPa; Liquid; vibrating tube
I'd be grateful if you could share measured mass density for these entries.
# value in kg/m3; strip the unit string

Need mass density of CCCCCCCC[n+]1ccn(C)c1.F[B-](F)(F)F [1-methyl-3-octylimidazolium tetrafluoroborate] , thanks.
1097.49

Need mass density of CCCCn1cc[n+](C)c1.F[B-](F)(F)F [1-butyl-3-methylimidazolium tetrafluoroborate] , thanks.
1194.52

Need mass density of CCCCCCn1cc[n+](C)c1.F[B-](F)(F)F [1-hexyl-3-methylimidazolium tetrafluoroborate] , thanks.
1138.53

Need mass density of CCn1cc[n+](C)c1.F[B-](F)(F)F [1-ethyl-3-methylimidazolium tetrafluoroborate] , thanks.
1277.93

* * *

cond: 323.15 K; 100 kPa; Liquid; vibrating tube
readout_name: mass density (kg/m3)
# value in kg/m3; strip the unit string

Need mass density of CCCCCCCC[n+]1ccn(C)c1.F[B-](F)(F)F [1-methyl-3-octylimidazolium tetrafluoroborate] , thanks.
1087.45

Need mass density of CCCCCCn1cc[n+](C)c1.F[B-](F)(F)F [1-hexyl-3-methylimidazolium tetrafluoroborate] , thanks.
1128.3

Need mass density of CCCCn1cc[n+](C)c1.F[B-](F)(F)F [1-butyl-3-methylimidazolium tetrafluoroborate] , thanks.
1184

Need mass density of CCn1cc[n+](C)c1.F[B-](F)(F)F [1-ethyl-3-methylimidazolium tetrafluoroborate] , thanks.
1266.69

* * *

I'd be grateful if you could share measured mass density for these entries.
cond: 303.15 K; 30000 kPa; Liquid; vibrating tube
# value in kg/m3; strip the unit string

Need mass density of CCn1cc[n+](C)c1.F[B-](F)(F)F [1-ethyl-3-methylimidazolium tetrafluoroborate] , thanks.
1294.54

Need mass density of CCCCCCCC[n+]1ccn(C)c1.F[B-](F)(F)F [1-methyl-3-octylimidazolium tetrafluoroborate] , thanks.
1115.56

Need mass density of CCCCCCn1cc[n+](C)c1.F[B-](F)(F)F [1-hexyl-3-methylimidazolium tetrafluoroborate] , thanks.
1156.18

Need mass density of CCCCn1cc[n+](C)c1.F[B-](F)(F)F [1-butyl-3-methylimidazolium tetrafluoroborate] , thanks.
1211.54

* * *

cond: 308.15 K; 6000 kPa; Liquid; vibrating tube
± gives the expanded uncertainty stated by the source.
I'd be grateful if you could share measured mass density for these entries.

Need mass density of CCn1cc[n+](C)c1.F[B-](F)(F)F [1-ethyl-3-methylimidazolium tetrafluoroborate] , thanks.
1280.58 ± 1.6 kg/m3

Need mass density of CCCCn1cc[n+](C)c1.F[B-](F)(F)F [1-butyl-3-methylimidazolium tetrafluoroborate] , thanks.
1197.34 ± 0.97 kg/m3

Need mass density of CCCCCCCC[n+]1ccn(C)c1.F[B-](F)(F)F [1-methyl-3-octylimidazolium tetrafluoroborate] , thanks.
1100.61 ± 0.94 kg/m3

Need mass density of CCCCCCn1cc[n+](C)c1.F[B-](F)(F)F [1-hexyl-3-methylimidazolium tetrafluoroborate] , thanks.
1141.48 ± 0.95 kg/m3

* * *

cond: 313.15 K; 12000 kPa; Liquid; vibrating tube
I'd be grateful if you could share measured mass density for these entries.
# value in kg/m3; strip the unit string

Need mass density of CCCCn1cc[n+](C)c1.F[B-](F)(F)F [1-butyl-3-methylimidazolium tetrafluoroborate] , thanks.
1196.67

Need mass density of CCn1cc[n+](C)c1.F[B-](F)(F)F [1-ethyl-3-methylimidazolium tetrafluoroborate] , thanks.
1279.51

Need mass density of CCCCCCn1cc[n+](C)c1.F[B-](F)(F)F [1-hexyl-3-methylimidazolium tetrafluoroborate] , thanks.
1141.13

Need mass density of CCCCCCCC[n+]1ccn(C)c1.F[B-](F)(F)F [1-methyl-3-octylimidazolium tetrafluoroborate] , thanks.
1100.39

* * *

cond: 293.15 K; 40000 kPa; Liquid; vibrating tube
readout_name: mass density (kg/m3)
# value in kg/m3; strip the unit string

Need mass density of CCn1cc[n+](C)c1.F[B-](F)(F)F [1-ethyl-3-methylimidazolium tetrafluoroborate] , thanks.
1305.84

Need mass density of CCCCCCCC[n+]1ccn(C)c1.F[B-](F)(F)F [1-methyl-3-octylimidazolium tetrafluoroborate] , thanks.
1126.31

Need mass density of CCCCn1cc[n+](C)c1.F[B-](F)(F)F [1-butyl-3-methylimidazolium tetrafluoroborate] , thanks.
1222.59

Need mass density of CCCCCCn1cc[n+](C)c1.F[B-](F)(F)F [1-hexyl-3-methylimidazolium tetrafluoroborate] , thanks.
1167.02

* * *

cond: 293.15 K; 14000 kPa; Liquid; vibrating tube
readout_name: mass density (kg/m3)
# value in kg/m3; strip the unit string

Need mass density of CCCCn1cc[n+](C)c1.F[B-](F)(F)F [1-butyl-3-methylimidazolium tetrafluoroborate] , thanks.
1211.59

Need mass density of CCCCCCCC[n+]1ccn(C)c1.F[B-](F)(F)F [1-methyl-3-octylimidazolium tetrafluoroborate] , thanks.
1114.55

Need mass density of CCn1cc[n+](C)c1.F[B-](F)(F)F [1-ethyl-3-methylimidazolium tetrafluoroborate] , thanks.
1295.29

Need mass density of CCCCCCn1cc[n+](C)c1.F[B-](F)(F)F [1-hexyl-3-methylimidazolium tetrafluoroborate] , thanks.
1155.57

* * *

I'd be grateful if you could share measured mass density for these entries.
cond: 323.15 K; 30000 kPa; Liquid; vibrating tube
# value in kg/m3; strip the unit string

Need mass density of CCCCCCCC[n+]1ccn(C)c1.F[B-](F)(F)F [1-methyl-3-octylimidazolium tetrafluoroborate] , thanks.
1102.88

Need mass density of CCCCn1cc[n+](C)c1.F[B-](F)(F)F [1-butyl-3-methylimidazolium tetrafluoroborate] , thanks.
1198.15

Need mass density of CCCCCCn1cc[n+](C)c1.F[B-](F)(F)F [1-hexyl-3-methylimidazolium tetrafluoroborate] , thanks.
1143.16

Need mass density of CCn1cc[n+](C)c1.F[B-](F)(F)F [1-ethyl-3-methylimidazolium tetrafluoroborate] , thanks.
1280.1

* * *

cond: 298.15 K; 100 kPa; Liquid; vibrating tube
readout_name: mass density (kg/m3)
# value in kg/m3; strip the unit string

Need mass density of CCCCCCCC[n+]1ccn(C)c1.F[B-](F)(F)F [1-methyl-3-octylimidazolium tetrafluoroborate] , thanks.
1104.31

Need mass density of CCCCCCn1cc[n+](C)c1.F[B-](F)(F)F [1-hexyl-3-methylimidazolium tetrafluoroborate] , thanks.
1145.47

Need mass density of CCn1cc[n+](C)c1.F[B-](F)(F)F [1-ethyl-3-methylimidazolium tetrafluoroborate] , thanks.
1285.51

Need mass density of CCCCn1cc[n+](C)c1.F[B-](F)(F)F [1-butyl-3-methylimidazolium tetrafluoroborate] , thanks.
1201.64

* * *

cond: 298.15 K; 12000 kPa; Liquid; vibrating tube
readout_name: mass density (kg/m3)
# value in kg/m3; strip the unit string

Need mass density of CCCCCCCC[n+]1ccn(C)c1.F[B-](F)(F)F [1-methyl-3-octylimidazolium tetrafluoroborate] , thanks.
1110.27

Need mass density of CCn1cc[n+](C)c1.F[B-](F)(F)F [1-ethyl-3-methylimidazolium tetrafluoroborate] , thanks.
1290.7

Need mass density of CCCCCCn1cc[n+](C)c1.F[B-](F)(F)F [1-hexyl-3-methylimidazolium tetrafluoroborate] , thanks.
1151.22

Need mass density of CCCCn1cc[n+](C)c1.F[B-](F)(F)F [1-butyl-3-methylimidazolium tetrafluoroborate] , thanks.
1207.12

* * *

cond: 308.15 K; 40000 kPa; Liquid; vibrating tube
readout_name: mass density (kg/m3)
# value in kg/m3; strip the unit string

Need mass density of CCn1cc[n+](C)c1.F[B-](F)(F)F [1-ethyl-3-methylimidazolium tetrafluoroborate] , thanks.
1294.96

Need mass density of CCCCn1cc[n+](C)c1.F[B-](F)(F)F [1-butyl-3-methylimidazolium tetrafluoroborate] , thanks.
1212.4

Need mass density of CCCCCCn1cc[n+](C)c1.F[B-](F)(F)F [1-hexyl-3-methylimidazolium tetrafluoroborate] , thanks.
1157.26

Need mass density of CCCCCCCC[n+]1ccn(C)c1.F[B-](F)(F)F [1-methyl-3-octylimidazolium tetrafluoroborate] , thanks.
1116.89

* * *

I'd be grateful if you could share measured mass density for these entries.
cond: 308.15 K; 14000 kPa; Liquid; vibrating tube
# value in kg/m3; strip the unit string

Need mass density of CCn1cc[n+](C)c1.F[B-](F)(F)F [1-ethyl-3-methylimidazolium tetrafluoroborate] , thanks.
1284.11

Need mass density of CCCCn1cc[n+](C)c1.F[B-](F)(F)F [1-butyl-3-methylimidazolium tetrafluoroborate] , thanks.
1201.03

Need mass density of CCCCCCCC[n+]1ccn(C)c1.F[B-](F)(F)F [1-methyl-3-octylimidazolium tetrafluoroborate] , thanks.
1104.66

Need mass density of CCCCCCn1cc[n+](C)c1.F[B-](F)(F)F [1-hexyl-3-methylimidazolium tetrafluoroborate] , thanks.
1145.41
